pKi: recorded values
- target desc: Procathepsin L (Homo sapiens)
- Sequence (P07711 whole entry): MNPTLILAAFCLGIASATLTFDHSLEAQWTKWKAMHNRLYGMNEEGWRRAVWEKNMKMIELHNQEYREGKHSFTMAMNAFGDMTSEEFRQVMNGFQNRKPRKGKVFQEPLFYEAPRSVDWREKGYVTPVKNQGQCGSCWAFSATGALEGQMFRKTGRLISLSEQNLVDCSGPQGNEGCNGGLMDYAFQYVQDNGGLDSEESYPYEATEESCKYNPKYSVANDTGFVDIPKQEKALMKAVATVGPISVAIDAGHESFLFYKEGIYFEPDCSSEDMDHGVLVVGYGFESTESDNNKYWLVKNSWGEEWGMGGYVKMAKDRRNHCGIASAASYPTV
Kindly note that pKi refers to -log10 of the concentration in mol/L and answer with the value alone.

[
  {
    "smiles record": "COC(=O)Cn1cc(COC[C@@H](C#N)NC(=O)[C@H](Cc2cccc(Br)c2)NC(=O)c2ccc(-c3ccccc3)cc2)nn1",
    "value": 6.37
  }
]

Could you now look at the following compound, please?
Find pKi (Procathepsin L (Homo sapiens)) for the entry `N#CCNC(=O)[C@H](Cc1cccc(Br)c1)NC(=O)c1ccc(-c2ccccc2)cc1` 6.22

###

- target desc: Cathepsin S (Homo sapiens)
- Sequence (P25774 whole entry): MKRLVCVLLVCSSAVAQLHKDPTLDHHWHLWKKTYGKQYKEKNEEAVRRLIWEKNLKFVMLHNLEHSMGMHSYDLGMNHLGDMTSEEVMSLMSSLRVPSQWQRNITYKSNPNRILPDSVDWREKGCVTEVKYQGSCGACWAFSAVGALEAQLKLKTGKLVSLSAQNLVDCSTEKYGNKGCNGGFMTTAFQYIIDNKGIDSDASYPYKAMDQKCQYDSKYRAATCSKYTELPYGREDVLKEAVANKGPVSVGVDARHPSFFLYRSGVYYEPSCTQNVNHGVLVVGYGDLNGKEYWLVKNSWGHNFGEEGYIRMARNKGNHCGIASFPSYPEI
- experimental details: Inhibition of human recombinant cathepsin S using Cbz-Phe-Arg-AMC as substrate incubated for 60 mins measured for 20 mins by spectrofluorometrical analysis
reported endpoint: pKi
Entry type: numeric. Quantity: pKi, the -log10 of concentration in molar units.

[
  {
    "smiles record": "N#C[C@H](COCc1cn(CC(=O)O)nn1)NC(=O)[C@H](Cc1ccccc1)NC(=O)OCc1ccccc1",
    "target desc": "Cathepsin S (Homo sapiens)",
    "pKi": 5.35
  },
  {
    "smiles record": "N#C[C@H](Cc1cn(CCC(=O)O)nn1)NC(=O)[C@H](Cc1cccc(Br)c1)NC(=O)c1ccc(-c2ccccc2)cc1",
    "target desc": "Cathepsin S (Homo sapiens)",
    "pKi": 5.74
  }
]

Below: the item to evaluate.
Reported pKi, compound `N#C[C@H](Cc1cn(CC(=O)O)nn1)NC(=O)[C@H](Cc1cccc(Br)c1)NC(=O)c1ccc(-c2ccccc2)cc1` : ____ 5.37
